Molecular target: M3 muscarinic receptor (Rattus norvegicus)
Construct: from tissue; host or cells: rat submandibular gland membrane homogenate
Sequence (P08483 whole entry): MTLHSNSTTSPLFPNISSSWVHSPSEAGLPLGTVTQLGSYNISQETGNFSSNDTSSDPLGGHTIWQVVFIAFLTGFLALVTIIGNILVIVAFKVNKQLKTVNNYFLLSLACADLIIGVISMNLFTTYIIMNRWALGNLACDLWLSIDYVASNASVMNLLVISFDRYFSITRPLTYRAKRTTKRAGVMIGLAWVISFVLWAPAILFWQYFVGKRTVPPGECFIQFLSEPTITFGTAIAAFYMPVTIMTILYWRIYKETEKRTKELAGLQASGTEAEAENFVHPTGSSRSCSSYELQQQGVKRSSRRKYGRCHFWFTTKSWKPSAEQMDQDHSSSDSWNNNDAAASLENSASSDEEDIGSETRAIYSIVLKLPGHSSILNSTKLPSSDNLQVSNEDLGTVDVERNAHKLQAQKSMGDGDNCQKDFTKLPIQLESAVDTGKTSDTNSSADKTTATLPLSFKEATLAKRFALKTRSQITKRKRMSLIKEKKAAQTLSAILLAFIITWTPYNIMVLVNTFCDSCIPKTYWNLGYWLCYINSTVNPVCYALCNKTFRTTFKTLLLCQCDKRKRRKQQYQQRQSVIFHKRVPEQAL
Test: Radioligand binding assay, [3H]-N-methylscopolamine, rat submandibular gland membranes
Details: [3H]NMS, Ki by Cheng & Prusoff, read-out: Receptor Binding Assay pKi M3 (converted)
Each record here notes measured Ki.
endpoint name: Ki (µM)

>>> df
                                   compound                     target_or_test_system  endpoint_name  measurement_units  cmp  assay_result
0  O=C(NC1C2CN(Cc3ccccc3)CC21)C(Cl)(c1ccccc1)C1CCCCC1 (centres unmarked)  M3 muscarinic receptor (Rattus norvegicus)             Ki                 µM    >             1
1  CC(c1ccccc1)N1CC2C(C1)C2NC(=O)C(O)(c1ccccc1)C1CCCC1 (centres unmarked)  M3 muscarinic receptor (Rattus norvegicus)             Ki                 µM    =        0.0251
2  O=C(NC1C2CN(Cc3ccccc3)CC21)C(c1ccccc1)C1CCCCC1 (centres unmarked)  M3 muscarinic receptor (Rattus norvegicus)             Ki                 µM    >             1
3  Cc1ccc(CCN2CC3C(C2)C3NC(=O)C(O)(c2ccccc2)C2CCCC2)cc1C (centres unmarked)  M3 muscarinic receptor (Rattus norvegicus)             Ki                 µM    =        0.0437
4  CC(c1ccccc1)N1CC2C(C1)C2NC(=O)C(O)(c1ccccc1)C1CCCCC1 (centres unmarked)  M3 muscarinic receptor (Rattus norvegicus)             Ki                 µM    =       0.00589
5  CC(C)=CCCN1CC2C(C1)C2N(C)C(=O)C(O)(c1ccccc1)C1CCCC1 (centres unmarked)  M3 muscarinic receptor (Rattus norvegicus)             Ki                 µM    =        0.0263
6  O=C(NC1C2CN(Cc3cccs3)CC21)C(O)(c1ccccc1)C1CCCC1 (centres unmarked)  M3 muscarinic receptor (Rattus norvegicus)             Ki                 µM    =         0.525
7  O=C(NC1C2CN(CCCc3ccccc3)CC21)C(O)(c1ccccc1)C1CCCC1 (centres unmarked)  M3 muscarinic receptor (Rattus norvegicus)             Ki                 µM    =         0.776
